Source listed as ChEMBL document CHEMBL2157915.

assayed target: Botulinum neurotoxin type A (Clostridium botulinum)
Sequence (P0DPI0 2-448 limits assumed): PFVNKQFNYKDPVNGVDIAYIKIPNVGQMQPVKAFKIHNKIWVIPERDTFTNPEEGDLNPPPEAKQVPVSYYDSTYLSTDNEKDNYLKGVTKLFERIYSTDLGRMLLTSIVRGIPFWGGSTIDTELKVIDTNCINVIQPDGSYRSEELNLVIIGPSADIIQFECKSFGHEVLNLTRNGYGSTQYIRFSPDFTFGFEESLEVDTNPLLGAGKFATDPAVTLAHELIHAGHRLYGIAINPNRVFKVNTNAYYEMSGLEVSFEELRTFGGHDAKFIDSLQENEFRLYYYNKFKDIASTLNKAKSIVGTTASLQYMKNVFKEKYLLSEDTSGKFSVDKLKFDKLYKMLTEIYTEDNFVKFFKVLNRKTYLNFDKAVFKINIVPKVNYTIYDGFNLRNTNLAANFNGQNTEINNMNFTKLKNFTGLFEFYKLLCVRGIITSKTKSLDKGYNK
recorded endpoint: Ki (µM)
Numbers only, in µM.

Challenge: Query: Ki; subject: COC(=O)c1ccc(O)c2nc3c(C=O)c(O)cc(O)c3nc12
Response given: 6.7
